Ref: patent US20250179103A1

tested on: pY641-STAT6 in Peripheral Blood Mononuclear Cells (PBMC); assay: MSD-pSTAT-PBMC Assay (pSTAT6, IL-4 stimulated); type: cell-based, Human; conditions: Homo sapiens, compound 3 hrs, then 1 ng/mL IL-4 for 10 min
pIC50: −log10 of the molar value.
TEST_READOUT: pIC50

COMPOUND: CCCOC(=O)[C@H](C)NP(=O)(Oc1ccccc1)[C@H](F)c1ccc2ccc(C(=O)N[C@H]3CN(C(=O)c4noc5ccc(C)cc45)CC[C@H]4CC[C@@H](C(=O)N5C[C@@H](c6ccn(C)c(=O)c6)CC56CC6)N4C3=O)cc2c1 (some centres unmarked)
RESULT: ≥ 7.00
//
COMPOUND: CCN1CC[C@H]2CC[C@@H](C(=O)N3C[C@@H](C#N)[C@H](c4ccccc4)C3)N2C(=O)[C@@H](NC(=O)c2ccc3ccc(C(F)(F)P(=O)(OCCSC(=O)C(C)(C)C)OCCSC(=O)C(C)(C)C)cc3c2)C1 (single isomer, unassigned)
RESULT: 6.00 to 7.00
//
COMPOUND: CN(CC(C)(C)C#N)C(=O)[C@@H]1CC[C@@H]2CCN(CC(F)F)C[C@H](NC(=O)c3cc4cc(C(F)(F)P(=O)(OCOC(=O)C(C)(C)C)OCOC(=O)C(C)(C)C)ccc4s3)C(=O)N21
RESULT: ≥ 7.00
//
COMPOUND: CCCC(=O)SCCOP(=O)(OCCSC(=O)CCC)C(F)(F)c1ccc2ccc(C(=O)N[C@H]3CN(C(C)=O)CC[C@H]4CC[C@@H](C(=O)N5C[C@H](c6cc[nH]c(=O)c6)[C@@H](C#N)C5)N4C3=O)cc2c1 (single isomer, unassigned)
RESULT: 6.00 to 7.00
//
COMPOUND: CC(=O)N1CC[C@H]2CC[C@@H](C(=O)N(C)c3ccccc3)N2C(=O)[C@@H](NC(=O)c2cc3cc(C(F)(F)P(=O)(OCCSC(=O)C(C)(C)C)OCCSC(=O)C(C)(C)C)ccc3s2)C1
RESULT: < 5.52

Enquiry: Please report the recorded pIC50 for CCCC(=O)SCCOP(=O)(OCCSC(=O)CCC)C(F)(F)c1ccc2ccc(C(=O)N[C@H]3CCN(CC(F)F)C[C@H]4CC[C@@H](C(=O)N5CC(c6cc[nH]c(=O)c6)CC56CC6)N4C3=O)cc2c1 (some centres unmarked) .
Return: ≥ 7.00

Enquiry: Same thing, different compound: CC(C)(C)C(=O)SCCOP(=O)(OCCSC(=O)C(C)(C)C)C(F)(F)c1ccc2ccc(C(=O)N[C@H]3CN(CC(F)F)CC[C@H]4CC[C@@H](C(=O)N5CC[C@H](c6ccccc6)[C@@H](C#N)C5)N4C3=O)cc2c1 (relative stereo)
Return: < 5.52

Enquiry: Same thing, different compound: `COCCOC(=O)OCOP(=O)(OCOC(=O)OCCOC)C(F)(F)c1ccc2sc(C(=O)N[C@H]3CN(C(C)=O)CC[C@H]4CC[C@@H](C(=O)N(C)c5ccccc5)N4C3=O)cc2c1`
Return: 5.52 to 6.00

====

molecular target: Recombinant STAT3 protein (STAT3(G127-I722)) (Homo sapiens, UniProt P40763); construct: Recombinant STAT3 protein (STAT3(G127-I722)); test: STAT3 Fluorescence Polarization (FP) Assay; details: STAT3(G127-I722) 25 nM, probe 5-FAM-GpYLPQTV-NH2 2 nM, 45-minute incubation
Sequence (P40763 127-722): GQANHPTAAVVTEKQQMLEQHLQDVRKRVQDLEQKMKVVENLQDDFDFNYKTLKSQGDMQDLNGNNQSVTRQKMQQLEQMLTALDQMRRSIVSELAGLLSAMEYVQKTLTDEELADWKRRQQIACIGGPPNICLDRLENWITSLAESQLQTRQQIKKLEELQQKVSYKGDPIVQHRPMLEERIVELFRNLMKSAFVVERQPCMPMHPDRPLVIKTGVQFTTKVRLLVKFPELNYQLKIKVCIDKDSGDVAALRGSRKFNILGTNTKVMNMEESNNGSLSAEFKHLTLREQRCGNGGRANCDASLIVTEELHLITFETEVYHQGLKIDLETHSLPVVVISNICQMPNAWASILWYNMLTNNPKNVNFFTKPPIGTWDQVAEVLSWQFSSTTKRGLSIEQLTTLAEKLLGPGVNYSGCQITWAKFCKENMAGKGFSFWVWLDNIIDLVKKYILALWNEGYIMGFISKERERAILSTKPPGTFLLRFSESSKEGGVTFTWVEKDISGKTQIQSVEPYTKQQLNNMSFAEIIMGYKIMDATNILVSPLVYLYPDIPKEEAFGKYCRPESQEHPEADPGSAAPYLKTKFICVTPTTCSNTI
pIC50: −log10 of the molar value.
Entries annotated with measured pIC50

Sample records with pIC50:
MOLECULE: CCC(=O)N1CC[C@@H](NC(=O)[C@@H]2CC[C@@H]3CCN(C(C)=O)C[C@H](NC(=O)c4cc5cc(C(F)(F)P(=O)(O)O)ccc5[nH]4)C(=O)N32)C1 [Compound 34]
SUBJECT_OF_TEST: Recombinant STAT3 protein (STAT3(G127-I722)) (Homo sapiens, UniProt P40763)
pIC50: 6.00 to 7.00

MOLECULE: O=C(N[C@H]1CCN(C(c2ccccc2)c2ccccc2)C[C@H]2CC[C@@H](C(=O)N3CC(c4cccnc4)C3)N2C1=O)c1cc2cc(C(F)(F)P(=O)(O)O)ccc2s1 [Compound 210]
SUBJECT_OF_TEST: Recombinant STAT3 protein (STAT3(G127-I722)) (Homo sapiens, UniProt P40763)
pIC50: ≥ 7.00

MOLECULE: CC(=O)N1CC[C@H]2CC[C@@H](C(=O)N3C[C@@H]4[C@H](C3)[C@H]3CS(=O)(=O)C[C@@H]43)N2C(=O)[C@@H](NC(=O)c2cc3cc(C(F)(F)P(=O)(O)O)ccc3s2)C1 [Compound 79]
SUBJECT_OF_TEST: Recombinant STAT3 protein (STAT3(G127-I722)) (Homo sapiens, UniProt P40763)
pIC50: 6.00 to 7.00

MOLECULE: CC(=O)N1CC[C@H]2CC[C@@H](C(=O)Nc3ccc(-c4ccccc4)cc3)N2C(=O)[C@@H](NC(=O)c2cc3cc(C(F)P(=O)(O)O)ccc3s2)C1 (stereo partly shown) [Compound 17]
SUBJECT_OF_TEST: Recombinant STAT3 protein (STAT3(G127-I722)) (Homo sapiens, UniProt P40763)
pIC50: 5.00 to 6.00

Enquiry: Please report the recorded pIC50 for O=C(N[C@H]1CN(c2cc3ccccc3cn2)CC[C@H]2CC[C@@H](C(=O)N3CCOCC3)N2C1=O)c1ccc2ccc(C(F)P(=O)(O)O)cc2c1 (stereo partly shown) [Compound 392] .
Return: 5.00 to 6.00

Enquiry: Same thing, different molecule: CN(CC(C)(C)C#N)C(=O)[C@@H]1CC[C@@H]2CCN(CC(F)F)C[C@H](NC(=O)c3cc4cc(C(F)(F)P(=O)(O)O)ccc4s3)C(=O)N21 [Compound 264]
Return: 5.00 to 6.00

Enquiry: Same thing, different molecule: CC(=O)N1CC[C@H]2CC[C@@H](C(=O)N3CC(C(=O)N4CCN(C)CC4)C3)N2C(=O)[C@@H](NC(=O)c2cc3cc(C(F)(F)P(=O)(O)O)ccc3s2)C1 [Compound 195]
Return: 5.00 to 6.00

Enquiry: Same thing, different molecule: CNC(=O)Cc1cc(-c2ccccc2)ccc1NC(=O)[C@@H]1CC[C@@H]2CCN(C(C)=O)C[C@H](NC(=O)c3cc4cc(C(F)(F)P(=O)(O)O)ccc4s3)C(=O)N21 [Compound 198]
Return: 6.00 to 7.00

Enquiry: Same thing, different molecule: O=C(N[C@H]1CCN(C(=O)OCc2ccccc2)C[C@H]2CC[C@@H](C(=O)N3CC(c4cccnc4)C3)N2C1=O)c1cc2cc(C(F)(F)P(=O)(O)O)ccc2s1 [Compound 214]
Return: ≥ 7.00

Enquiry: Same thing, different molecule: CC(=O)N1CC[C@H]2CC[C@@H](C(=O)N(C)c3ccc(C(C)(C)c4ccccc4)cc3)N2C(=O)[C@@H](NC(=O)c2cc3cc(C(F)(F)P(=O)(O)O)ccc3s2)C1 [Compound 155]
Return: 5.00 to 6.00
